This collection of values is drawn from paper PMC3703823.

test system: alpha-1-acid glycoprotein (AAG); assay: SPR-based biosensor; format: binding; conditions: human
assay-metric: Kd (µM)
// units = µM; emit number, no label

Could you please provide reported Kd for CS(=O)(=O)c1ccc(C(=O)Nc2ccc(Cl)c(-c3ccccn3)c2)c(Cl)c1 [GDC-0449] ? Thanks! 13

---

experiment: clinical; details: human, plasma, po, 150 mg
assay-metric: AUC(0-t)
The reply should read as a number followed by its unit.

Could you please provide reported AUC(0-t) for CS(=O)(=O)c1ccc(C(=O)Nc2ccc(Cl)c(-c3ccccn3)c2)c(Cl)c1 [GDC-0449] ? Thanks! 322 µM·h

---

test: In vitro solubility; type: physicochemical; details: pH 0.1
assay-metric: solubility (µg/mL)
// units = µg/mL; emit number, no label

Could you please provide reported solubility for CS(=O)(=O)c1ccc(C(=O)Nc2ccc(Cl)c(-c3ccccn3)c2)c(Cl)c1 ? Thanks! 990
